Numbers sourced from paper PMC10281804.

target-system: T1, Mouse talin-1 R7R8 (mouse, UniProt P26039 1359-1659)
T1 construct: talin-1, mouse, rod domains R7 and R8 (R7R8 double domain module); 15N-labelled for the NMR experiments; also called talin R7R8; R7R8 module; source: expressed and purified as described previously [9]
T1 sequence (P26039 1359-1659): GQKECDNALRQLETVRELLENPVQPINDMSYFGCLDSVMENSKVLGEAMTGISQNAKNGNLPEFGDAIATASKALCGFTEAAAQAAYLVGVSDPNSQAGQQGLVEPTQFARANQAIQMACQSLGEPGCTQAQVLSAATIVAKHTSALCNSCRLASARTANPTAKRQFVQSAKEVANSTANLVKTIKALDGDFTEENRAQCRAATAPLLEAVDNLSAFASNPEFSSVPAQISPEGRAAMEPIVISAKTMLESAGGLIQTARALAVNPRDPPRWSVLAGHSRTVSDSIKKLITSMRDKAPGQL
assay-info: fluorescence polarisation; BODIPY-TMR coupled peptide at 0.5 µM in PBS pH 7.4, 5 mM TCEP, 0.05% Triton X-100; one-site total and nonspecific binding model
assay-conditions: both partners purified
endpoint-label: Kd (nM)
Form entry: value (nM) — number only.

Request: Recorded Kd of PYFVETPYGFQLDLDFVKYVDDIQKGNTIKKC (BODIPY-TMR coupled, KANK1 KN motif, mouse residues 30-60; extra C-terminal cysteine printed beyond the stated limits 30-60; also called WT-KANK1; source: synthetic peptide, bought: GLBiochem (Shanghai)) [KANK1 KN motif peptide (for FP), BODIPY-TMR coupled] , please.
Result: 1200
